apparent KD of K4 kissing-loop reporter: recorded values
Test system: K4 kissing-loop RNA reporter;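 also: bound reporter read as fluorescence of individual clusters on recovered sequencing chips by microscopy, with normalized cluster intensities fitted with a binding model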
METHOD_NOTES: apparent KD of K4 kissing-loop reporter; higher = weaker reporter binding
EXPERIMENTAL_SETUP: Eterna round: R107; input ligand: none
ASSAY_READOUT: apparent KD of K4 kissing-loop reporter (nM)

biopolymer_sequence="AGGAGCGUGGGAUGAAAAUCGCACGCUCCUCGAGGACCGGUACGGCCGCCACUCGCUCGCGCCGAGUGAUGUUCGGCCGGCGAAC [#2 Same State - Tryptophan A Attempt #12 (HarryS)]" assay_readout="apparent KD of K4 kissing-loop reporter" measurement=312
biopolymer_sequence="CAACAUCACAACUUCUUCGUCCUAGAAGACUAGGAUAUCAGGAAACUGAGAAGGAGUCUCUGCAGUGAUGUUGCAGCUAGGACGA [[K]'-[F2]'-[F1]'-[F1]-[F2]-[K1]-[K2]-[F]''_Design2b]" assay_readout="apparent KD of K4 kissing-loop reporter" measurement=185
biopolymer_sequence="AUUUGUUACCUUAUAGGAGUGAUGUUCUUGCGAGGACCGGUACGGCCGCCACUCGCGCUGGCGCCUAGCCUCGGACCGUUAAUUC [theeternabot_exclusion_KL_Trp_A_25]" assay_readout="apparent KD of K4 kissing-loop reporter" measurement=635

###

apparent KD of MS2 coat protein: recorded values
System: MS2 coat protein
METHOD_NOTES: apparent KD of MS2 coat protein, switch OFF state (with FMN for OFF switches, without FMN for ON switches); designed switch direction (-1 OFF switch, 1 ON switch): -1; higher = weaker reporter binding
EXPERIMENTAL_SETUP: FMN input: 0 or 200 uM; Eterna round: R93 (includes R88 designs)
ASSAY_READOUT: apparent KD of MS2 coat protein

biopolymer_sequence="GAGAUACAUGAGGAUCACCCAUGUGAGGAUAUCGGUUGGAGGAGGUGGAGGUUGAGUACGAGAAGGCACGGAUG [salish99-Ex1-10]" assay_readout="apparent KD of MS2 coat protein" measurement="31.1 nM"
biopolymer_sequence="GGAAAGUAAGGAUAUGCGAACAAACAAACAAACAAAAGGGAACAUGAGGAUCACCCAUGUAGAAGGUGCAAACA [Exclusion 2 Three redone]" assay_readout="apparent KD of MS2 coat protein" measurement="32.6 nM"
biopolymer_sequence="AAGAACCAAGGAUAUACAUGAGGAUCACCCAUGUAAAAGAAAGAGGGAAAAGAGAAAAGUAGAAGGUGGAAGAA [Ptolemy VI Philometor]" assay_readout="apparent KD of MS2 coat protein" measurement="32.1 nM"
biopolymer_sequence="AAAAAACAUGAGGAUCACCCAUGUCAGGAUAUACAAAAUAAAAUAAAAAUAAAAUAAAGUAGAAGGGACAAAAA [May 8]" assay_readout="apparent KD of MS2 coat protein" measurement="25.4 nM"
biopolymer_sequence="AAUAAAGCAGGAUAUACUAAAGAAAUGAAAAGAAAUAAAGAACAUGAGGAUCACCCAUGUAGAAGGGCUAAUAA [Semqen]" assay_readout="apparent KD of MS2 coat protein" measurement="18.4 nM"
biopolymer_sequence="AUGUAGGUAGGAUAUGCAUAGAUACAGAUUCAUGUGGAACUACAUGAGGAUCACCCAUGUAGAAGGACCUAAAA [Mat - Same state - Mayanna Mod - D126]" assay_readout="apparent KD of MS2 coat protein" measurement="30 nM"
biopolymer_sequence="ACGUGACAUGAGGAUCACCCAUGUUAGGAUAUGCGAAUUCAAAAUCAGCUAACGCUGAGCAGAAGGAACAUGGU [Esriange]" assay_readout="apparent KD of MS2 coat protein" measurement="88.9 nM"
biopolymer_sequence="AAGAACUAAGGAUAUACAAAAUAAAAGAAAAGAAAGAAAGAACAUGAGGAUCACCCAUGUAGAAGGUAGAAGAA [Khakheperre Senusret II]" assay_readout="apparent KD of MS2 coat protein" measurement="15.1 nM"
biopolymer_sequence="AGUUGGCGAGGAUAUACAUGAGGAUCACCCAUGUGAGAGAAAUAAGUGAGAAAGAAAAGUAGAAGGCGCUAACA [JL Lego Mod 18]" assay_readout="apparent KD of MS2 coat protein" measurement="164 nM"
biopolymer_sequence="CUCAAGUAAGGAUAUACAAGAAAAGAAGAGAAAGAAAAGAAGUAGAAGGUACAUGAGGAUCACCCAUGUAAGAA [EteRNA is fun!]" assay_readout="apparent KD of MS2 coat protein" measurement="22.2 nM"
biopolymer_sequence="AAAAAGUUAGGAUAUACAUGAGGAUCACCCAUGUGCACAUAUGGAGAAUAUGGUGGUAGUAGAAGGGACAAAAA [EX2 Malc#17]" assay_readout="apparent KD of MS2 coat protein" measurement="69.7 nM"
biopolymer_sequence="AAAAAACAUGAGGAUCACCCAUGUCAGGAUAUUCGAAAAAAAAAAAAAAAAAAAAAAAGGAGAAGGGACGAAAA [DR Excl. 1]" assay_readout="apparent KD of MS2 coat protein" measurement="56.8 nM"
biopolymer_sequence="AAACGUAGAGGAUAUACAAAAAGAUUACGAAAGUAAUCGGGACAUGAGGAUCACCCAUGUAGAAGGCUACGAAA [Mod2 of Meechl 64% 2]" assay_readout="apparent KD of MS2 coat protein" measurement="94.5 nM"
biopolymer_sequence="AAAAAACAUGAGGAUCACCCAUGUCAGGAUAUGCUAUGGAAAUAAAAAAUAAAACAUAGCAGAAGGGACACCAA [Mat - Exclusion 1 - Eli mod - D48]" assay_readout="apparent KD of MS2 coat protein" measurement="55 nM"
biopolymer_sequence="GGAAAACAUGAGGAUCACCCAUGUAAGGAUAUGCAAAGGAUAUAGAAGGAAAAAAAAAGCAGAAGGUACAAAGG [salish99-ex1-20]" assay_readout="apparent KD of MS2 coat protein" measurement="53.6 nM"
biopolymer_sequence="AGGUAGUCAGGAUAUGCGUGAAGAAUAAAACAAAUAACAACGCAGAAGGGACAUGAGGAUCACCCAUGUUAAGA [May 48]" assay_readout="apparent KD of MS2 coat protein" measurement="31.7 nM"
biopolymer_sequence="UGGGAGUCAGGAUAUACGAACAUGUCGCCAGAUGUCAAGGUACAUGAGGAUCACCCAUGUAGAAGGGAGGAGAA [salish99-Ex2-30(!)]" assay_readout="apparent KD of MS2 coat protein" measurement="56.6 nM"
biopolymer_sequence="AACAGGUCAGGAUAUGUGGAAAAAAUAAAAAAAAAUAAAACACAGAAGGGACAUGAGGAUCACCCAUGUAAACA [Mat - Exclusion 4 - Mayanna - D143]" assay_readout="apparent KD of MS2 coat protein" measurement="56.8 nM"
biopolymer_sequence="GAAACACAUGAGGAUCACCCAUGUCAGGAUAUGUAGAUAAAAAGAAAAUAAAAUAAAAACAGAAGGGACAAAAG [Mat - Same state - Mayanna Mod - D103]" assay_readout="apparent KD of MS2 coat protein" measurement="76.3 nM"
biopolymer_sequence="AACUGGGCAGGAUAUACAUGAGGAUCACCCAUGUAAAGAAAAGAAAGAUCCGAGGAAAGUAGAAGGGCCUGGAA [Variant 4 of Mod 1 of Ex3 sub 3, by Tesla's Dusciple Round 1]" assay_readout="apparent KD of MS2 coat protein" measurement="91.3 nM"
biopolymer_sequence="AGCUAGUGAGGAUAUACGAAUCUGUCAAAAGACGGAAGGGAACAUGAGGAUCACCCAUGUAGAAGGCACUAGCA [Web Mod 74% 6]" assay_readout="apparent KD of MS2 coat protein" measurement="23.2 nM"
biopolymer_sequence="AAAAAAAAAGGAUAUACAGGAGGUAAGGUCGGACAAAAAAAACAUGAGGAUCACCCAUGUAGAAGGUUUAAAAA [Excls2-IX]" assay_readout="apparent KD of MS2 coat protein" measurement="19.8 nM"
biopolymer_sequence="AACAGUACAGGAUAUACAUGAGGAUCACCCAUGUGGGAAAAAAGAUCGAGAGAUCAAUGUAGAAGGGUACUGGA [JL In the Red 03]" assay_readout="apparent KD of MS2 coat protein" measurement="427 nM"
biopolymer_sequence="AAAAAGGUAGGAUAUACAUGAGGAUCACCCAUGUAAAAAAAAACAGAAAAAAACAAAUGUAGAAGGGCCAAAAA [Ex3 Malc#5]" assay_readout="apparent KD of MS2 coat protein" measurement="35.6 nM"
biopolymer_sequence="AGGCAGACAGGAUAUACUUGGGCAGCCAGUAUGGUAAUAUAACAUGAGGAUCACCCAUGUAGAAGGGUCAGAAA [JR_Exc002_Sub210]" assay_readout="apparent KD of MS2 coat protein" measurement="88.4 nM"
